Listed below: viability, T/C values for each entry.
Tested on: OVCAR-5 complex spheroids, viability
Assay: Anticancer human tumor OVCAR-5 cell line growth inhibition;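 also: spheroids exposed to agents for seven days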;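 as to viability, T/C: 100% = DMSO vehicle control wells viability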
Settings: second compound 1 µM; first compound 0.949 µM; stronger effect = lower value
The answer is to be given in %; state only the numeric part.

These solved cases illustrate the format of a correct answer.
Nc1ccccc1NC(=O)c1ccc(CNC(=O)OCc2cccnc2)cc1 + NC1CC1c1ccc(-c2cccc(O)c2)cc1 : 19.8
Nc1ccccc1NC(=O)c1ccc(CNC(=O)OCc2cccnc2)cc1 + NC1CCC(NC2CC2c2ccccc2)CC1 : 27.3
NS(=O)(=O)OCC1CC(n2ccc3c(NC4CCc5ccccc54)ncnc32)CC1O (stereo not given) + NC1CCC(NC2CC2c2ccccc2)CC1 : 17.9
CCN(c1cc(-c2ccc(CN3CCOCC3)cc2)cc(C(=O)NCc2c(C)cc(C)[nH]c2=O)c1C)C1CCOCC1 + NC1CC1c1ccc(-c2cccc(O)c2)cc1 : 91.9
NS(=O)(=O)OCC1CC(n2ccc3c(NC4CCc5ccccc54)ncnc32)CC1O (stereo not given) + NC1CC1c1ccc(-c2cccc(O)c2)cc1 : 7.9

Now let's try a different one.
Read off the recorded viability, T/C for O=C(C=Cc1cccc(S(=O)(=O)Nc2ccccc2)c1)NO + NC1CC1c1ccc(-c2cccc(O)c2)cc1
9.19

====

Tested on: OVCAR-5 complex spheroids, viability
Test: Anticancer human tumor OVCAR-5 cell line growth inhibition;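 also: spheroids exposed to agents for seven days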;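 as to viability, T/C: 100% = DMSO vehicle control wells viability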
Settings: second compound 1 µM; first compound 0.3 µM; stronger effect = lower value
Response field label: string, one of true (viability, T/C strictly below 40%) or false.

Observe how each entry below is paired with its result.
O=C(C=Cc1cccc(S(=O)(=O)Nc2ccccc2)c1)NO + NC1CCC(NC2CC2c2ccccc2)CC1 : true
Nc1ncn(C2CC(O)C(CO)S2)c(=O)n1 (stereo not drawn) + NC1CC1c1ccc(-c2cccc(O)c2)cc1 : false
COc1cc(C2c3cc4c(cc3C(OC3OC5COC(C)OC5C(O)C3O)C3COC(=O)C23)OCO4)cc(OC)c1O (stereo not drawn) + NC1CCC(NC2CC2c2ccccc2)CC1 : false
NS(=O)(=O)OCC1CC(n2ccc3c(NC4CCc5ccccc54)ncnc32)CC1O (stereo not drawn) + NC1CCC(NC2CC2c2ccccc2)CC1 : true
Nc1ccn(C2OC(CO)C(O)C2(F)F)c(=O)n1 (stereo not drawn) + NC1CCC(NC2CC2c2ccccc2)CC1 : true
CCN(c1cc(-c2ccc(CN3CCOCC3)cc2)cc(C(=O)NCc2c(C)cc(C)[nH]c2=O)c1C)C1CCOCC1 + NC1CCC(NC2CC2c2ccccc2)CC1 : false
CCc1c2c(nc3ccc(O)cc13)-c1cc3c(c(=O)n1C2)COC(=O)[C@]3(O)CC + NC1CC1c1ccc(-c2cccc(O)c2)cc1 : true

Now consider a different compound.
Is it true that viability, T/C reported for Nc1ncn(C2CC(O)C(CO)S2)c(=O)n1 (stereo not drawn) + NC1CCC(NC2CC2c2ccccc2)CC1 is less than 40%?
false

====

Test system: OVCAR-5 complex spheroids, viability
Test: Anticancer human tumor OVCAR-5 cell line growth inhibition;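 also: spheroids exposed to agents for seven days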
Settings: curve of first compound; second compound 0.316 µM
pIC50: −log10 of the molar value.
Property Label: pIC50

NS(=O)(=O)OCC1CC(n2ccc3c(NC4CCc5ccccc54)ncnc32)CC1O (centres undefined) + NC1CCC(NC2CC2c2ccccc2)CC1 : 6.65
Nc1ccn(C2OC(CO)C(O)C2(F)F)c(=O)n1 (centres undefined) + NC1CC1c1ccc(-c2cccc(O)c2)cc1 : > 9.02
CC(C)c1c(-c2ccccc2)nc2c(C#N)c[nH]n2c1=O + NC1CCC(NC2CC2c2ccccc2)CC1 : < 5.00

Read off the recorded pIC50 for Cn1ncnc1C1c2n[nH]c(=O)c3cc(F)cc(c23)NC1c1ccc(F)cc1 (centres undefined) + NC1CCC(NC2CC2c2ccccc2)CC1
< 7.00

The measurements presented in this section are drawn from PubChem BioAssay AID1918956.
